Overview of recorded IC50 for various molecules
# TARGET_UNDER_TEST: recombinant human G9a protein (Homo sapiens, UniProt Q96KQ7)
# Construct: purchased BPS Bioscience Inc. #51001
# PROTOCOL_NOTES: G9a inhibitory activity test (ALPHA)
# Type: biochemical
# APPLIED_CONDITIONS: biotinylated histone H3 peptide (1-21), SAM, read-out: Inhibitory activity (G9a IC50 value)

{"columns": ["MOLECULE", "TEST_VALUE"],
 "data": [
  ["CCCCC(NC(=O)c1[nH]c2c(c1C)C(=O)CC(C)(C)C2)C(=O)Nc1ccc(C#N)cc1 (stereo not drawn)", "≥ 200 nM"],
  ["Cc1c(C(=O)NC(CCC2CC2)C(=O)Nc2ccc(O)nc2)[nH]c2c1C(=O)CC(C)(C)C2 (stereo not drawn)", "50 to 200 nM"],
  ["CCCCC(NC(=O)c1[nH]c2c(c1C)C(=O)CC(C)(C)C2)C(=O)Nc1cccc2c1CCN(C)C2 (stereo not drawn)", "≥ 200 nM"],
  ["CCCCC(NC(=O)c1[nH]c2c(c1C)C(=O)CC(C)(C)C2)C(=O)Nc1ccccc1SC (stereo not drawn)", "50 to 200 nM"],
  ["Cc1c(C(=O)NC(CCC2CC2)C(=O)Nc2cccc(C#N)c2)[nH]c2c1C(=O)CC(C)(C)C2 (stereo not drawn)", "50 to 200 nM"]
]}

Item Cc1ccc2c(c1)CCN2C(=O)C(CCC1CC1)NC(=O)c1[nH]c2c(c1C)C(=O)CC(C)(C)C2 (stereo not drawn) has what recorded IC50?
≥ 200 nM

Item CCCCC(NC(=O)c1[nH]c2c(c1C)C(=O)CC(C)(C)C2)C(=O)Nc1ccccc1SCC (stereo not drawn) has what recorded IC50?
50 to 200 nM

Item CCCCC(NC(=O)c1[nH]c2c(c1C)C(=O)CC(C)(C)C2)C(=O)NCc1ccc(CN(C)C)cc1 (stereo not drawn) has what recorded IC50?
< 50 nM

Item CCCCC(NC(=O)c1[nH]c2c(c1C)C(=O)CC(C)(C)C2)C(=O)Nc1ccnn1CC (stereo not drawn) has what recorded IC50?
≥ 200 nM

Item CCCCC(NC(=O)c1[nH]c2c(c1C)C(=O)CC(C)(C)C2)C(=O)Nc1ccc(C)cc1OC (stereo not drawn) has what recorded IC50?
≥ 200 nM

Item CCCCC(NC(=O)c1[nH]c2c(c1C)C(=O)CC(C)(C)C2)C(=O)Nc1cccc(C)c1C (stereo not drawn) has what recorded IC50?
≥ 200 nM

###

# TARGET_UNDER_TEST: recombinant human G9a protein (Homo sapiens, UniProt Q96KQ7)
# Construct: purchased BPS Bioscience Inc. #51001
# PROTOCOL_NOTES: G9a inhibitory activity test (ALPHA)
# Format: biochemical
# APPLIED_CONDITIONS: biotinylated histone H3 peptide (1-21), SAM, read-out: Inhibitory activity (G9a IC50 value)
# Method: The G9a inhibitory activity of each compound was evaluated by measuring the enzymatic activity of G9a by amplified luminescence proximity homogeneous assay (ALPHA). […] Then, measurement was performed using the EnSpire Alpha plate reader (PerkinElmer, Inc., Waltham, Mass., USA). […]
Overview of recorded IC50 for various compounds

Some entries whose results are on file:
{"columns": ["COMPOUND", "TEST_VALUE"],
 "data": [
  ["COc1ccc(NC(=O)C(CCC2CC2)NC(=O)c2[nH]c3c(c2C)C(=O)CC(C)(C)C3)cc1 (stereo not drawn) [Example 1-63]", "50 to 200 nM"],
  ["Cc1c(C(=O)NC(CCC2CC2)C(=O)NC2CCN(C)CC2)[nH]c2c1C(=O)CC(C)(C)C2 (stereo not drawn) [Example 1-68]", "≥ 200 nM"],
  ["Cc1c(C(=O)NC(CCC2CC2)C(=O)N2CCc3c(CN(C)C)cccc32)[nH]c2c1C(=O)CC(C)(C)C2 (stereo not drawn) [Example 1-59]", "50 to 200 nM"],
  ["Cc1c(C(=O)NC(CCC2CC2)C(=O)Nc2ccc(OC3CCN(C)CC3)cc2)[nH]c2c1C(=O)CC(C)(C)C2 (stereo not drawn) [Example 1-85]", "< 50 nM"],
  ["Cc1c(C(=O)NC(CCC2CC2)C(=O)Nc2ccc(SC(F)F)cc2)[nH]c2c1C(=O)CC(C)(C)C2 (stereo not drawn) [Example 1-65]", "≥ 200 nM"]
]}

Record CCCCC(NC(=O)c1[nH]c2c(c1C)C(=O)CC(C)(C)C2)C(=O)Nc1ccccc1C (stereo not drawn) [Example 1-13] : what is its IC50 with recombinant human G9a protein (Homo sapiens, UniProt Q96KQ7)?
≥ 200 nM

Record CCCCC(NC(=O)c1[nH]c2c(c1C)C(=O)CC(C)(C)C2)C(=O)Nc1ccc(OCCN(C)C(=O)OC(C)(C)C)nc1 (stereo not drawn) [Example 1-57] : what is its IC50 with recombinant human G9a protein (Homo sapiens, UniProt Q96KQ7)?
≥ 200 nM

Record CCCCC(NC(=O)c1[nH]c2c(c1C)C(=O)CC(C)(C)C2)C(=O)Nc1ccc2[nH]cc(CN(C)C)c2c1 (stereo not drawn) [Example 1-100] : what is its IC50 with recombinant human G9a protein (Homo sapiens, UniProt Q96KQ7)?
< 50 nM

Record CCOc1ccc(NC(=O)C(CCC2CC2)NC(=O)c2[nH]c3c(c2C)C(=O)CC(C)(C)C3)cn1 (stereo not drawn) [Example 1-58] : what is its IC50 with recombinant human G9a protein (Homo sapiens, UniProt Q96KQ7)?
≥ 200 nM

Record Cc1c(C(=O)NC(C(=O)Nc2ccc(OC3CCN(C)CC3)nc2)c2ccccc2)[nH]c2c1C(=O)CC(C)(C)C2 (stereo not drawn) [Example 1-86] : what is its IC50 with recombinant human G9a protein (Homo sapiens, UniProt Q96KQ7)?
≥ 200 nM

Record CCCCC(NC(=O)c1[nH]c2c(c1C)C(=O)CC(C)(C)C2)C(=O)NC1CCCCC1 (stereo not drawn) [Example 1-24] : what is its IC50 with recombinant human G9a protein (Homo sapiens, UniProt Q96KQ7)?
≥ 200 nM

###

# TARGET_UNDER_TEST: recombinant human G9a protein (Homo sapiens, UniProt Q96KQ7)
# Construct: purchased BPS Bioscience Inc. #51001
# Sequence (Q96KQ7 785-1210 limits assumed): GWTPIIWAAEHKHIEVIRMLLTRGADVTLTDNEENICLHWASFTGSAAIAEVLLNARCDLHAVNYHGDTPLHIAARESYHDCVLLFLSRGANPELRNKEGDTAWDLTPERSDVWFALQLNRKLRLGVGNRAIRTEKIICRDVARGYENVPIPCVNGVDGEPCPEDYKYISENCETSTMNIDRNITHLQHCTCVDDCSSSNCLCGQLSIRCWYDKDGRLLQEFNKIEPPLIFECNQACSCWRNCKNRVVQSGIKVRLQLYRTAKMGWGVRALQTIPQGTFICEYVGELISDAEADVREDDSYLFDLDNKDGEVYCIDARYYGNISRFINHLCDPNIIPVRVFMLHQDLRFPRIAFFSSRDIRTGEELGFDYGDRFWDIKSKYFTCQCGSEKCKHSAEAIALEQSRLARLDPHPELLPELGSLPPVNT
# PROTOCOL_NOTES: G9a inhibitory activity test (ALPHA)
# Type: biochemical
# APPLIED_CONDITIONS: read-out: Inhibitory activity (G9a IC50)
# Experimental: The G9a inhibitory activity of each compound was evaluated by measuring the enzymatic activity of G9a by amplified luminescence proximity homogeneous assay (ALPHA). […] Then, measurement was performed using the EnSpire Alpha plate reader (PerkinElmer, Inc., Waltham, Mass., USA). […]
REPORTED_METRIC: IC50

{"columns": ["COMPOUND", "IC50"],
 "data": [
  ["CCCC[C@@H](NC(=O)c1[nH]c2c(c1C)C(=O)CC(C)(C)C2)C(=O)Nc1ccc(OC2CNC2)nc1", "50 to 200 nM"],
  ["COc1ccc(NC(=O)C(CCC2CC2)NC(=O)c2ccc(OCCCN(C)C)cc2)cn1 (stereo not drawn)", "≥ 200 nM"],
  ["CCCCC(NC(=O)c1[nH]c2c(c1C)C(=O)CC(C)(C)C2)C(=O)Nc1ccc(N)cc1 (stereo not drawn)", "≥ 200 nM"],
  ["COc1ccc(NC(=O)C(CCC2CC2)NC(=O)c2ccc(Nc3ccncc3)cc2OC)cn1 (stereo not drawn)", "< 50 nM"],
  ["CCCCC(NC(=O)c1[nH]c2c(c1C)C(=O)CC(C)(C)C2)C(=O)NCc1ccc(CN2CCCC(F)(F)C2)cc1 (stereo not drawn)", "≥ 200 nM"]
]}

Proceed to the following item.
Item Cc1c(C(=O)NC(CCC2CC2)C(=O)N2CCc3ccc(CN4CCCC4)cc32)[nH]c2c1C(=O)CC(C)(C)C2 (stereo not drawn) has what recorded IC50?
≥ 200 nM

###

# TARGET_UNDER_TEST: recombinant human G9a protein (Homo sapiens)
# Construct: purchased BPS Bioscience Inc. #51001
# PROTOCOL_NOTES: G9a inhibitory activity test (ALPHA)
# Assay type: biochemical
# APPLIED_CONDITIONS: biotinylated histone H3 peptide (1-21), SAM, read-out: Inhibitory activity (G9a IC50 value)
pIC50: −log10 of the molar value.
Overview of recorded pIC50 for various compounds

{"columns": ["COMPOUND", "pIC50"],
 "data": [
  ["CCCCC(NC(=O)c1[nH]c2c(c1C)C(=O)CC(C)(C)C2)C(=O)NC1(c2ccccc2)CC1 (stereo not drawn)", "6.70 to 7.30"],
  ["CCCCC(NC(=O)c1[nH]c2c(c1C)C(=O)CC(C)(C)C2)C(=O)Nc1ccc(OC2CCN(C)CC2)nc1 (stereo not drawn)", "6.70 to 7.30"],
  ["CCCCC(NC(=O)c1[nH]c2c(c1C)C(=O)CC(C)(C)C2)C(=O)Nc1cccc(CN2CCOCC2)c1 (stereo not drawn)", "≤ 6.70"],
  ["CCCCC(NC(=O)c1[nH]c2c(c1C)C(=O)CC(C)(C)C2)C(=O)Nc1ccc(F)cc1 (stereo not drawn)", "≤ 6.70"],
  ["CCCCC(NC(=O)c1[nH]c2c(c1C)C(=O)CC(C)(C)C2)C(=O)Nc1cccc2c1CCC2 (stereo not drawn)", "≤ 6.70"],
  ["CCCCC(NC(=O)c1[nH]c2c(c1C)C(=O)CC(C)(C)C2)C(=O)Nc1cccc(C(=O)OC)c1C (stereo not drawn)", "≤ 6.70"],
  ["Cc1c(C(=O)NC(CCC2CC2)C(=O)N2CCc3cc(C#N)ccc32)[nH]c2c1C(=O)CC(C)(C)C2 (stereo not drawn)", "≤ 6.70"],
  ["CCCCC(NC(=O)c1[nH]c2c(c1C)C(=O)CC(C)(C)C2)C(=O)NCc1ccc(OCCN(C)C)cc1 (stereo not drawn)", "6.70 to 7.30"],
  ["CCCC[C@H](NC(=O)c1[nH]c2c(c1C)C(=O)CC(C)(C)C2)C(=O)Nc1ccccc1OC", "≤ 6.70"],
  ["CCCCC(NC(=O)c1[nH]c2c(c1C)C(=O)CC(C)(C)C2)C(=O)NCc1ccc(CCCO)cc1 (stereo not drawn)", "≤ 6.70"]
]}

Proceed to the following item.
Item CCCCC(NC(=O)c1[nH]c2c(c1C)C(=O)CC(C)(C)C2)C(=O)NCc1ccccc1OC (stereo not drawn) has what recorded pIC50?
≤ 6.70
